Target: G/T mismatch-specific thymine DNA glycosylase (Homo sapiens) (UniProt Q13569);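 further: human TDG cleavage of quenched duplex DNA oligonucleotides coupled to APE1, strand release read as fluorescence at 594 nm, inhibition of TDG activity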
Sequence (Q13569 whole entry): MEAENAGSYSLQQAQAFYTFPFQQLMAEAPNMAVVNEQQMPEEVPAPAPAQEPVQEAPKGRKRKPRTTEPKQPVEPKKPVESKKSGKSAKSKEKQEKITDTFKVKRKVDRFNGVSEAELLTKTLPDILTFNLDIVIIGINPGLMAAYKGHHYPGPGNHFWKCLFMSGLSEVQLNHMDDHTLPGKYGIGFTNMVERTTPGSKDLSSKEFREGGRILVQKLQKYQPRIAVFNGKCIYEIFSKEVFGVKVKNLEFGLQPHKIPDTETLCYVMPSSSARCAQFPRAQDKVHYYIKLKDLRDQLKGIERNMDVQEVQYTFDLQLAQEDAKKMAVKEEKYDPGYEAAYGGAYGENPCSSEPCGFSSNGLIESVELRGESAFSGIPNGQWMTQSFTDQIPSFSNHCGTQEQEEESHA
Details: Compound Concentration 10.0 uM, Hit No
Description: Inhibition of TDG by quantifying inhibition of TDG-mediated cleavage and dissociation of quenched duplex DNA oligonucleotides, measured as fluorescence at 594 nm. To generate a functional strand incision and increase turn-over this assay is coupled to APE1.
Where a SMILES comes first, the peptide text is derived from it. [ ]: non-standard residue; d: D form. Arg(Me) = CNC(=N)NCCC[C@H](N)C(=O)O; d4Pal = N[C@H](Cc1ccncc1)C(=O)O; azaGly = NNC(=O)O
Catalogue of inhibition values
Observation type: inhibition (%)

| Compound | Measured on | Quantitative result |
| --- | --- | --- |
| COc1cc(Br)c(S(=O)(=O)Nc2ccc(C(F)(F)F)c(O[C@@H]3CCN(C)C3)c2)cc1OC | G/T mismatch-specific thymine DNA glycosylase (Homo sapiens) (UniProt Q13569) | -0.305 |
| NC[C@@H]1O[C@H](C23CC4CC(CC(C4)C2)C3)Cc2c1ccc(O)c2O | G/T mismatch-specific thymine DNA glycosylase (Homo sapiens) (UniProt Q13569) | 31.8 |
| O=C(Nc1cccc(C(F)(F)F)c1)c1cc(Cl)ccc1O | G/T mismatch-specific thymine DNA glycosylase (Homo sapiens) (UniProt Q13569) | 4.24 |
| CN(C)c1ncc2cc(-c3ccc(-c4ncccc4F)cc3Cl)c(=O)n(C[C@H]3OC[C@H](N)CO3)c2n1 | G/T mismatch-specific thymine DNA glycosylase (Homo sapiens) (UniProt Q13569) | 41.3 |
| CN([C@@H]1CCc2c(CC(=O)O)c3cc(S(C)(=O)=O)ccc3n2C1)S(=O)(=O)c1ccc(F)cc1 | G/T mismatch-specific thymine DNA glycosylase (Homo sapiens) (UniProt Q13569) | 46 |
| C[C@@H]1CCc2ncc(F)cc2[C@H]2CCCN2c2ccn3ncc(c3n2)C(=O)N1 | G/T mismatch-specific thymine DNA glycosylase (Homo sapiens) (UniProt Q13569) | 40.3 |
| CNC(=N)NCCC[C@H](NC(=O)[C@H](CC(C)C)NC(=O)NNC(=O)[C@H](Cc1ccccc1)NC(=O)[C@H](CO)NC(=O)[C@H](CC(N)=O)NC(=O)[C@@H](Cc1ccncc1)NC(=O)[C@H](N)Cc1ccc(O)cc1)C(=O)N[C@@H](Cc1ccccc1)C(N)=O (H-[dY][d4Pal]NSF[azaGly]L[Arg(Me)]F-NH2) | G/T mismatch-specific thymine DNA glycosylase (Homo sapiens) (UniProt Q13569) | 52.5 |
| CC(C)c1cc(-c2ccc(F)c3ccccc23)nc(N)n1 | G/T mismatch-specific thymine DNA glycosylase (Homo sapiens) (UniProt Q13569) | -7.89 |
| CC(=O)Nc1nc2c(Oc3cc(-c4ccc(C(F)(F)F)cc4)ncn3)cccc2s1 | G/T mismatch-specific thymine DNA glycosylase (Homo sapiens) (UniProt Q13569) | -3.88 |
